molecular target: CDK8/Cyclin C (Homo sapiens); test: Inhibition of Alexa647 tracer binding to full length recombinant human His-tagged CDK8/Cyclin C expressed in baculovirus expression system preincubated for 20 mins followed by tracer addition measured after 60 mins by TR-FRET based Lanthascreen assay
Sequence (P49336 whole entry): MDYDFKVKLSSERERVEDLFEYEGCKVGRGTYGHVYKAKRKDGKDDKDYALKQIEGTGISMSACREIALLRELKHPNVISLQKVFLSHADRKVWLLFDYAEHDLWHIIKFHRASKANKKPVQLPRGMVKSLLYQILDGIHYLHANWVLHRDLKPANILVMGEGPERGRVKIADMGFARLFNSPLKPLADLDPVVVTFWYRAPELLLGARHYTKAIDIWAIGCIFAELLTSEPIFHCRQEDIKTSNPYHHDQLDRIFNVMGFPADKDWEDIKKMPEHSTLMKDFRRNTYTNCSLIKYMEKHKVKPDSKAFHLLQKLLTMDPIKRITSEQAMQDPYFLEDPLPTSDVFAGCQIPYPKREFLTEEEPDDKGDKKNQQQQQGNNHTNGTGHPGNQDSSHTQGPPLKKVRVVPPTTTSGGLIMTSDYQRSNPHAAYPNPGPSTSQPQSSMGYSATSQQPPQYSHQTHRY
Sequence (P24863 whole entry, further chain): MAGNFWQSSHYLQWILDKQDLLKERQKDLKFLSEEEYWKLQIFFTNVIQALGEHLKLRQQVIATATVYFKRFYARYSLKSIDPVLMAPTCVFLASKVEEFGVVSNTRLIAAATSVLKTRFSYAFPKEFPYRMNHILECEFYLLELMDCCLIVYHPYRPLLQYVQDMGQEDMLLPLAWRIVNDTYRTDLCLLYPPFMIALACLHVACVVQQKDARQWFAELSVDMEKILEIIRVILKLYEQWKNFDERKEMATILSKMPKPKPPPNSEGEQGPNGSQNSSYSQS
Labelling field: enter TRUE if recorded IC50 is less than 9 nM. Enter FALSE if it equals or exceeds that cut-off.

Could you please tell me whether IC50 recorded for O=C(Nc1cccc(Cl)c1)Nc1nnc(CC(=O)N2CCCC2)s1 is less than 9 nM?
FALSE

Problem: For the molecule COc1ccc(CC(=O)N2CCN(c3ccc(NC(=O)Nc4cccc(C(F)(F)F)c4)cc3)CC2)cc1 , is IC50 under 9 nM?
FALSE

Lab log: compare recorded IC50 with 9 nM; is it strictly lower for CC(=O)c1cccc(NC(=O)c2nnn(-c3ccc4noc(-c5ccccc5)c4c3)c2C)c1 ?
FALSE

Turning to the following molecule.
Quick check: IC50 of O=C(NCC1CCN(c2nsc(Cc3ccc(F)cc3)n2)CC1)Nc1ccc(Cl)c(Cl)c1 under 9 nM?
TRUE

* * *

target: CDK8/Cyclin C (Homo sapiens) (UniProt P49336+P24863); experiment: Inhibition of Alexa647 tracer binding to full length recombinant human His-tagged CDK8/Cyclin C expressed in baculovirus expression system at 5 uM preincubated for 20 mins followed by tracer addition measured after 60 mins by TR-FRET based Lanthascreen assay relative to control
parameter: inhibition (%)
One number for each entry, in %.

Respectfully, I request inhibition for each entry included below.
1. CC(=O)N1CCC2(CC1)CC(=O)c1ccc(OCC(=O)Nc3cccc(C(F)(F)F)c3)cc1O2
2. Cc1nc(Nc2ccc(NC(=O)Nc3cccc(C(F)(F)F)c3)cc2)cc(N2CCCCC2)n1
3. CC(=O)c1ccc(NC(=O)COc2cc(C(F)(F)F)c3c(C)nn(-c4ccc(C)cc4)c3n2)cc1
4. COc1cc(NC(=O)N2CCN(c3cc(-c4ccc(C)cc4)ncn3)CC2)cc(OC)c1
5. CNc1nccc(N2CCC(CC(=O)NCc3nc4ccccc4n3C)CC2)n1
6. CCOC(=O)c1c(C)oc2ncnc(NCCc3ccc(OCC)cc3)c12
7. CN1C(=O)c2ccccc2C(C(=O)Nc2ccc(S(=O)(=O)N3CCCCC3)cc2)C1c1cccs1 (centres undefined)

1: 95; 2: 97; 3: -6; 4: -6; 5: 24; 6: 9; 7: -6

# per-item lookup of inhibition; items listed below
1. CCOC(=O)Cc1ccc(NC(=O)NC(C(=O)N2CCc3ccccc32)c2ccccc2)cc1 (centres undefined)
2. CCC(=O)Nc1nc2cc(NC(=O)c3cc(-c4ccccc4)nc4c(C)cccc34)ccc2s1
3. O=C(NC1CCCc2ccccc21)C1CCN(C2=CN3C(C=C2)NNC3c2ccc(Cl)cc2)CC1 (centres undefined)
4. Cc1ccc(N2Cc3c(ncnc3N3CCCC(C(=O)NCc4cccc(C(F)(F)F)c4)C3)N2)cc1 (centres undefined)
5. CCCn1c(=O)oc2cc(NC(=O)Nc3cccc(C)c3)ccc21
6. CCc1ccc(-n2c(SCc3ccccc3C)nc3[nH]ncc3c2=O)cc1

1: 16; 2: 0; 3: -2; 4: -7; 5: 18; 6: 10

Provide each entry's inhibition from the list below.
1. O=C(Nc1ccco1)NC1CCN(c2ncnc3c2CCC3)C1 (centres undefined)
2. Cc1noc2ncnc(N3CCC(C(=O)NCCCN4CCOCC4)CC3)c12

1: 15; 2: 1

* * *

I'd appreciate it if you could supply inhibition values for the items below.
target: CDK8/Cyclin C (Homo sapiens) (UniProt P49336+P24863); experiment: Inhibition of Alexa647 tracer binding to full length recombinant human His-tagged CDK8/Cyclin C expressed in baculovirus expression system at 5 uM preincubated for 20 mins followed by tracer addition measured after 60 mins by TR-FRET based Lanthascreen assay relative to control
Answers are plain numbers, in %.

Here are 5 molecules together with their reported answers.
What value of measured inhibition is listed for CC(=O)c1cccc(NC(=O)c2nnn(-c3ccc4noc(-c5ccccc5)c4c3)c2C)c1 ?
80

Which inhibition is reported for this molecule? Cc1ccc2sc(NNC(=O)c3ccc(S(=O)(=O)CN4CCc5ccccc5C4)cc3)nc2c1C
6

Consider the molecule COc1cccc(NC(=O)CSc2nc3ccc(NC(=O)Nc4cc(C)cc(C)c4)cc3s2)c1 and give its measured inhibition.
20

# query: inhibition of entry COc1ccc(CNC(=O)C2CCCN(c3cnc4nccnc4c3)C2)cc1 (centres undefined)
3

I am curious: what inhibition value has been reported for CCc1ccc(NC(=O)c2c(O)c3ccccc3n(CC)c2=O)cc1 ?
46

Below is a list of molecules. For each, state its recorded inhibition.
1. Cc1oc2ccccc2c1C(=O)CSc1nc(O)c2c(n1)NCN2
2. Cc1ccc(-n2ncc(C(C)(C)C)c2NC(=O)CN(C)C(=O)Nc2ccccc2C)c(C)c1
3. COc1ccc(CNC(=O)Cn2cnc3c(C(N)=O)nsc3c2=O)cc1

14
13
4

Provide reported inhibition for each item, in the same order as listed.
1. Cc1ccc(-c2nccc(Nc3cccc(C(=O)NCc4ccc(C(C)C)cc4)c3)n2)cc1
2. Cc1ccc(Cl)cc1N1CCN(C(=O)c2noc3ncnc(N4CCCC4)c23)CC1
3. Cc1ccc(Cl)cc1N1CCN(c2ncnc3sc(C(=O)O)c(C)c23)CC1
4. COc1ccc(OC)c(NC(=O)Nc2ccc(Cn3cnc(-c4nc(-c5ccc(F)cc5)no4)c3)cc2)c1
5. O=C(Nc1cccc2ccccc12)c1cccc(C2CSC(S(=O)(=O)N3CCOCC3)C2)c1 (centres undefined)

1. 2
2. 4
3. 75
4. 1
5. -1

# get_value(readout='inhibition', item= O=C(NCC1CCN(c2nsc(Cc3ccc(F)cc3)n2)CC1)Nc1ccc(Cl)c(Cl)c1 )
101
